- target: MDMX (Homo sapiens, UniProt O15151)
- Sequence (O15151 1-125): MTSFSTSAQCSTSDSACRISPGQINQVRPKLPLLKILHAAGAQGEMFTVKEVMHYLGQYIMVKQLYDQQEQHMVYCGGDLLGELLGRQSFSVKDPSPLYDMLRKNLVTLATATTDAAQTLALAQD
- procedureText: Competitive fluorescence polarization assay for MDMX
- Format: binding
- details: competitive FP assay, read-out: IC50 (MDMX)
pIC50: −log10 of the molar value. Where a SMILES comes first, the peptide text is derived from it. Bridges are numbered along the chain shown (N, C = ends). [ ]: non-standard residue; d: D form. R8 = C=CCCCCCC[C@@](C)(N)C(=O)O; S5 = C=CCCC[C@](C)(N)C(=O)O
measuredEndpoint: pIC50

The compound identified as CC(=O)N[C@@H](CCC(=O)O)C(=O)N[C@H](C(=O)N[C@@H](Cc1ccccc1)C(=O)N[C@]1(C)CCCCCCC=CCCC[C@@](C)(C(=O)N[C@@H](CO)C(=O)N[C@@H](Cc2c[nH]c3ccccc23)C(=O)N[C@@H](C)C(N)=O)NC(=O)[C@H](CC(C)C)NC(=O)[C@H](CCC(N)=O)NC(=O)[C@H](C)NC(=O)[C@H](Cc2c[nH]c3ccccc23)NC(=O)[C@H](Cc2ccc(O)cc2)NC(=O)[C@H](CCCCN)NC1=O)[C@@H](C)O [compound 129] (Ac-ETF[R8]KYWAQL[S5]SWA-NH2; staple 4-11) registered its pIC50 at 6.00 to 7.00
